Known IC50 of a selection of compounds
# testedTarget: V2 Recepter (rat kidney plasma membrane preparations) (Rattus norvegicus)
# Construct: rat kidney plasma membrane preparations
# Sequence (Q00788 whole entry): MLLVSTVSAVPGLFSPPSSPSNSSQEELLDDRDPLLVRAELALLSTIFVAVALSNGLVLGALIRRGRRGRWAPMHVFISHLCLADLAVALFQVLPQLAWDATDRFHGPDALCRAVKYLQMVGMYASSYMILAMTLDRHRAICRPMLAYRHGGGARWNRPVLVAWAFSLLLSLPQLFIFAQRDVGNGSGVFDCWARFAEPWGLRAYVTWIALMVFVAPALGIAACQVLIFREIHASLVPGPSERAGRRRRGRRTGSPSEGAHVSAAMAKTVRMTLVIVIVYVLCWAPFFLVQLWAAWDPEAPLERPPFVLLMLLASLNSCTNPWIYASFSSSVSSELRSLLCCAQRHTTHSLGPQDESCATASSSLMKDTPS
# experimentNotes: V2 Recepter binding assay
# conditionLabel: [3H]-Arg-vasopressin 4×10^-10 M, 4° C., pH 8.0, rat kidney plasma membrane

Here's what some known entries look like.
> print(dat)
                                   compound  testreadout  readoutvalue
1  COc1cc(NC(=O)c2ccccc2Cl)ccc1C(=O)N1CCCC(CC(=O)NCCc2ccccn2)c2cc(Cl)ccc21 (stereo not shown)         IC50          4 nM
2  COc1cc(NC(=O)c2ccccc2Br)ccc1C(=O)N1CCCC(OCCNS(=O)(=O)C(F)(F)F)c2cc(Cl)ccc21 (stereo not shown)         IC50         61 nM
3  CC(=O)NC1CCN(CCC2CCCN(C(=O)c3ccc(NC(=O)c4ccccc4Cl)cc3C)c3ccc(Cl)cc32)CC1 (stereo not shown)         IC50         14 nM
4  CCN(CC)CCCNCCOC1CCCN(C(=O)c2ccc(NC(=O)c3ccccc3Cl)cc2OC)c2ccc(Cl)cc21 (stereo not shown)         IC50          5 nM
5  COc1cc(NC(=O)c2ccccc2Cl)ccc1C(=O)N1CCCC(CC(=O)N2CCN(CC#N)CC2)c2cc(Cl)ccc21 (stereo not shown)         IC50          9 nM
6  C=CCN(C)CCC1CCCN(C(=O)c2ccc(NC(=O)c3ccccc3Cl)cc2C)c2ccc(Cl)cc21 (stereo not shown)         IC50        4.7 nM

API: the following record is the query input.
Task item: For the record COc1cc(NC(=O)c2ccccc2Cl)ccc1C(=O)N1CCCC(OCCNCc2ccccc2)c2cc(Cl)ccc21 (stereo not shown) , what value of IC50 is listed for V2 Recepter (rat kidney plasma membrane preparations) (Rattus norvegicus)?
Reply: 9 nM

----------
# IC50 annotations
# testedTarget: V2 Recepter (rat kidney plasma membrane preparations) (Rattus norvegicus)
# Construct: rat kidney plasma membrane preparations; from tissue; host or cells: rat kidney plasma membranes
# experimentNotes: V2 Recepter binding assay
# conditionLabel: [3H]-Arg-vasopressin 4×10^-10 M, 4° C., pH 8.0, rat kidney plasma membrane

In the examples that follow, each entry is paired with its recorded IC50.
> print(dat)
                                   compound  testreadout  readoutvalue
1  COc1cc(NC(=O)c2ccccc2Cl)ccc1C(=O)N1CCCC(OCCNC2CC2)c2cc(Cl)ccc21 (stereo not shown)         IC50          3 nM
2  COc1cc(NC(=O)c2ccccc2Cl)ccc1C(=O)N1CCCC(CC(=O)NCCN(C)C)c2cc(Cl)ccc21 (stereo not shown)         IC50        2.5 nM
3  COc1cc(C(=O)N2CCCC(CC(=O)N(C)CCN(C)C)c3cc(Cl)ccc32)ccc1NC(=O)c1ccccc1Br (stereo not shown)         IC50          8 nM

From here, focus on the item given below.
Task item: Suppose we examine the compound Cc1cc(NC(=O)c2ccccc2Cl)ccc1C(=O)N1CCCC(CCn2ncnn2)c2cc(Cl)ccc21 (stereo not shown) ; what IC50 value has been reported?
Reply: 12 nM

----------
# testedTarget: V1 Recepter (rat liver plasma membrane preparations) (Rattus norvegicus)
# Construct: rat liver plasma membrane preparations
# Sequence (P30560 whole entry): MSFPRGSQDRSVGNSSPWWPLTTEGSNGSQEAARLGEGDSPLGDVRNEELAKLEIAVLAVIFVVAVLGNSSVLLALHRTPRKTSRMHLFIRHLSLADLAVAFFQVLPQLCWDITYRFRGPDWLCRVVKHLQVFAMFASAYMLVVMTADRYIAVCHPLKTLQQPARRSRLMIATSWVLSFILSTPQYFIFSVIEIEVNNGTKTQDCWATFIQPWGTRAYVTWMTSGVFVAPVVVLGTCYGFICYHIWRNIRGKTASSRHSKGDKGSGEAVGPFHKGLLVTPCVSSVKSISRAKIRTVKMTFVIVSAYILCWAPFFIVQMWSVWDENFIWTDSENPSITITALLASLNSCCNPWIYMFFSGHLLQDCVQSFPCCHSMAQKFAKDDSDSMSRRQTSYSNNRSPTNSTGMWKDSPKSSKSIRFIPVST
# experimentNotes: V1 Recepter binding assay
# conditionLabel: [3H]-Arg-vasopressin 2×10^-10 M, 37° C., 10 minutes, pH 8.0, rat liver plasma membrane
pIC50: −log10 of the molar value.
Criterion: pIC50 meeting or surpassing 8. Met: 1. Not met: -1.

As a guide, the following entries are already answered.
> print(dat)
                                   compound                              testedtarget  classassignment
1  CCN(CC)CCCNCCOC1CCCN(C(=O)c2ccc(NC(=O)c3ccccc3Cl)cc2OC)c2ccc(Cl)cc21 (stereo not shown)  V1 Recepter (rat liver plasma membrane preparations) (Rattus norvegicus)               -1
2  COc1cc(C(=O)N2CCCCc3cc(Cl)ccc32)ccc1NC(=O)c1ccccc1OCCCN1CCC(NC(C)=O)CC1 (single isomer, unassigned)  V1 Recepter (rat liver plasma membrane preparations) (Rattus norvegicus)                1
3  CCOC(=O)N1CCN(CCC2CCCN(C(=O)c3ccc(NC(=O)c4ccccc4Cl)cc3OC)c3ccc(Cl)cc32)CC1 (stereo not shown)  V1 Recepter (rat liver plasma membrane preparations) (Rattus norvegicus)               -1
4  COc1cc(NC(=O)c2ccccc2Cl)ccc1C(=O)N1CCCC(CC(=O)Nc2ccccc2Cl)c2cc(Cl)ccc21 (stereo not shown)  V1 Recepter (rat liver plasma membrane preparations) (Rattus norvegicus)               -1

Now examine the next entry.
Task item: Is pIC50 for COc1cc(NC(=O)c2ccccc2Cl)ccc1C(=O)N1CCCC(OCCNS(C)(=O)=O)c2cc(Cl)ccc21 (stereo not shown) at or above 8?
Reply: 1
